# measurement-description: Cytotoxicity against human XF498 cell line
# Format: cell-based
# condition-set: XF498 cells, read-out: ED50 (the source's name)
Would you kindly list CC50 for each of these compounds?
Value expressed in µg/mL; do not type the unit.

Item under review: O=C1N[C@@H](c2c[nH]c3ccccc23)CN=C1c1c[nH]c2ccccc12 . Reported CC50?
17.1

Sample COc1cccc2c1C(=O)c1c(O)c3c(c(O)c1C2=O)C[C@@](O)(C(=O)CO)C[C@@H]3O[C@H]1C[C@H](N)[C@H](O)[C@H](C)O1 — what was its CC50?
0.01

Given the entry O=C1NC[C@@H](c2c[nH]c3cc(Br)ccc23)N=C1c1c[nH]c2ccccc12 [(R)-6'-DEBROMOHAMACANTHIN B] , report its measured CC50.
8.3

# lookup: CC50 of O=C1N[C@H](c2c[nH]c3cc(Br)ccc23)CN[C@H]1c1c[nH]c2ccccc12
19.1

What measured CC50 goes with O=C1NC[C@@H](c2c[nH]c3ccccc23)N=C1c1c[nH]c2ccccc12 ?
24.1

---

# measurement-description: Cytotoxicity against human SK-MEL-2 cell line
# Format: cell-based
# condition-set: SK-MEL-2 cells, read-out: ED50 (the source's name)
I'd appreciate it if you could supply CC50 values for the items below.
Expressed in µg/mL, but write only the number.

Find the recorded CC50 belonging to O=C1N[C@@H](c2c[nH]c3cc(Br)ccc23)CN=C1c1c[nH]c2cc(Br)ccc12 [HAMACANTHIN A] and report it.
5.44

What does the record list as CC50 for O=C1NC[C@@H](c2c[nH]c3cc(Br)ccc23)N[C@H]1c1c[nH]c2ccccc12 ?
7.1

Which CC50 is reported for this compound? O=C1NC[C@@H](c2c[nH]c3ccccc23)N=C1c1c[nH]c2ccccc12
13.7

---

So I've got a bunch of compounds here, and I need their log10 of CC50 values.
# measurement-description: Cytotoxicity against human HCT15 cell line
# Type: cell-based
# condition-set: HCT-15 cells, read-out: ED50 (the source's name)
Please be aware that the numbers have been log10-transformed from CC50 in µg/mL.

Item O=C1N[C@@H](c2c[nH]c3cc(Br)ccc23)CN=C1c1c[nH]c2cc(Br)ccc12 has what recorded log10 of CC50?
0.67

Query: log10 of CC50; subject: O=C1NC[C@@H](c2c[nH]c3ccccc23)N=C1c1c[nH]c2ccccc12
0.68

Data request, read-out log10 of CC50, for O=C1NC[C@@H](c2c[nH]c3cc(Br)ccc23)N[C@H]1c1c[nH]c2ccccc12
0.80

Query (compound): COc1cccc2c1C(=O)c1c(O)c3c(c(O)c1C2=O)C[C@@](O)(C(=O)CO)C[C@@H]3O[C@H]1C[C@H](N)[C@H](O)[C@H](C)O1 ; field requested: log10 of CC50
-1.70

What value of log10 of CC50 has been recorded for this entry: O=C1N[C@@H](c2c[nH]c3ccccc23)CN=C1c1c[nH]c2ccccc12
0.61

Give its log10 of CC50 value. Item: O=C1NC[C@H](c2c[nH]c3cc(Br)ccc23)N=C1c1c[nH]c2cc(Br)ccc12
0.18

Would you mind telling me what log10 of CC50 value was observed for O=C1NC[C@@H](c2c[nH]c3cc(Br)ccc23)N=C1c1c[nH]c2ccccc12 [(R)-6'-DEBROMOHAMACANTHIN B] ?
0.62

Query: log10 of CC50; subject: O=C(C1=NC(c2c[nH]c3cc(Br)ccc23)CN1)c1c[nH]c2cc(Br)ccc12 (centres undefined)
0.69

// returns reported log10 of CC50 for input O=C1N[C@H](c2c[nH]c3cc(Br)ccc23)CN[C@H]1c1c[nH]c2ccccc12
0.80

Field request: log10 of CC50 | item: O=C(C1=NC(c2c[nH]c3cc(Br)ccc23)CN1)c1c[nH]c2ccccc12 (centres undefined)
0.99
